# study target: Integrin alpha4beta1 on Jurkat cells (clone E6-1) (Homo sapiens, UniProt P13612;P05556 P13612:34-1032,P05556:21-798)
# Sequence (P13612 34-1032, chain 1 of 2): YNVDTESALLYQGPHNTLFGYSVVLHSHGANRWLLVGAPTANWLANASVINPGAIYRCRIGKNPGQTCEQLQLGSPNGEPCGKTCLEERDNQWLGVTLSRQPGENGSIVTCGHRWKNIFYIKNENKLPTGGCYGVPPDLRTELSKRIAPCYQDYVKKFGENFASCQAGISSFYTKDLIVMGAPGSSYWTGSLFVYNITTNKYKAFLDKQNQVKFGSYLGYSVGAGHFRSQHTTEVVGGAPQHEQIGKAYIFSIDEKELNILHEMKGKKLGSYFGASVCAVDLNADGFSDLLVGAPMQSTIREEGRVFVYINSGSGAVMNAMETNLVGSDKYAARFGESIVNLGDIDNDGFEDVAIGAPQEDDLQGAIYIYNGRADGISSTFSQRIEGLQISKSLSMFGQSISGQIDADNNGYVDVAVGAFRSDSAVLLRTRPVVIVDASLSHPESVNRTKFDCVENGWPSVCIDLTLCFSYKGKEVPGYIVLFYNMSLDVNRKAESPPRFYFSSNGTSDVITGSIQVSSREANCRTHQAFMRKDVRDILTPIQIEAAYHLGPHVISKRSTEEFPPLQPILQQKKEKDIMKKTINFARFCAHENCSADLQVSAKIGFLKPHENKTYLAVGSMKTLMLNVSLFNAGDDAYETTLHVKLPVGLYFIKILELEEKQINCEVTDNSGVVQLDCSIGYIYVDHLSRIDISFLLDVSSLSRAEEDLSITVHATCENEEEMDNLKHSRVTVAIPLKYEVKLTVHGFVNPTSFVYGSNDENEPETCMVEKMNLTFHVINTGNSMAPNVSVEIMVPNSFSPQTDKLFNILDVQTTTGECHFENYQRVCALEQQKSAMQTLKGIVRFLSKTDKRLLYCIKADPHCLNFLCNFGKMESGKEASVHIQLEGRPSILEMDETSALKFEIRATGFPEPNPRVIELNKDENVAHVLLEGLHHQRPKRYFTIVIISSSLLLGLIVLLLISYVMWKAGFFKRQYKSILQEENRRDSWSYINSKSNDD
# Sequence (P05556 21-798, chain 2 of 2): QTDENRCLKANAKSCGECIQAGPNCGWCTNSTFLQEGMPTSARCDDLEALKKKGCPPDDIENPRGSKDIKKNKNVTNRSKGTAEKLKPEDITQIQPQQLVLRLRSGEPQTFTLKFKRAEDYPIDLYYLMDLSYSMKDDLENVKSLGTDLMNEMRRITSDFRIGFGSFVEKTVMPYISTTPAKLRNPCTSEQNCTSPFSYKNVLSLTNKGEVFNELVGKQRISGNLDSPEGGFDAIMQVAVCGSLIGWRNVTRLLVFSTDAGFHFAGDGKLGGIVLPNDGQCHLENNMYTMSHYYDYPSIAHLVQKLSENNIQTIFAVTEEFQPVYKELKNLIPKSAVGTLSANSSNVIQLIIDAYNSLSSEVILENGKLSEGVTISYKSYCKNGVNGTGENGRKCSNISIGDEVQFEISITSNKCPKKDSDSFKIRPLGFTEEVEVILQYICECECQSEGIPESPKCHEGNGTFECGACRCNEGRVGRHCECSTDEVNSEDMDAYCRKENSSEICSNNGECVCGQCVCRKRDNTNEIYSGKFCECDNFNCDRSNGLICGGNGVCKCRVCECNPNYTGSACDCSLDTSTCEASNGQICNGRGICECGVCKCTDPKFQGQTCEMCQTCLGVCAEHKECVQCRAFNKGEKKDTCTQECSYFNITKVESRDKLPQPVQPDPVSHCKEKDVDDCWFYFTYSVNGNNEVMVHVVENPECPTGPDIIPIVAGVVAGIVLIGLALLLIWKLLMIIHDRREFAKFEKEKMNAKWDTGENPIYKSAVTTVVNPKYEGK
# measurement description: flow; apparent, 4 C
# condition parameters: tags: endogenous, ATCC cell line
property label: Kd (nM)
Answer format: numeric, nM implied, no suffix.

Query block: Give a short answer stating reported Kd for CGCGCCGTACTAGATGCAACCCGACTACTAACGTCGTACGAGCGCG (ssDNA, PS at three terminal linkages of each end: C*G*C*GCC...GAGC*G*C*G) [HR7A1.Tr2.S2E2.PS3] .
Result block: 3.2
